experiment: protease stability score; higher = more stable; yeast display proteolysis, trypsin and chymotrypsin;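 also: relative to predicted unfolded state with 0 unfolded-like and 1 meaning tenfold more protease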
Use Met when the recorded protease stability score is no lower than 1; use Not met when it is lower.

Use these answered entries as a reference point.
SEEEEILHKMAEDNIQMLQTGDEETLKRLLDPNVRIHIGEFRTHGMEKLSHWLLHLRIRDIRIHSMRIIDGVADIDGTVEIEQGDKRHTVNMRIFIIVINGKNHSFIFRWH	Met
SELEEWTERMAKQMLDDVETGDEDRLLKLADPHVRVEFIVDGKIEEVHGREELRKLMERLGIKHFEIKRVSIRVIDGRIHVHNDGHMIIDGKTIPVQLHIHAEKVNGRWRVTDLSIRVG	Met
DHWEHVERMYSHEVLHMLETGDEHKFNKLMDPNARIDVGEWDLIGMHRVSHALKEVRDELGIKHSEVKHVDIFNGRVEIHTEVHVDGRSHKVRIEVIYVNGRTKWMRYEQH	Not met
SDEQRDVKFMLDQWLRSIETGNEDEIRHLVDPNVRSDINGQTHHGRDEYVRHMVEIRVILESIELHDLRWQGDKIDVDAIVQGTIIVNGRKTRFIERVHLHSVKVNGRWEIKEYRVV	Met
TEEHEEARRAMKIIVDLLDTGDWKTISRYFDPNVRFEVGDKTYHGREEVLNRFIELGHSNIDVKLHHMELYGDKVVIDSRMNVDGRTHEIEWHSRKYNGRWRLHELHVR	Met

Tell me whether protease stability score is at least 1 here: `DEEEERVRNFVERLSKAVRTGDEEEMRDLFDPDVKSRQGDKDVIGRELVAEWLSKFFLRRGIEVHFELKRFEFQGDYLHLRLHVEVRIDGKDHTLTMYVLLIKVDGRWILHSIHRE`
Met
